Hey, just so you know, these numbers are from the supplement of paper PMC5998384.

Test system: HeLa Kyoto;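 note: synchronized HeLa Kyoto cells, proteins quantified by TMT10plex mass spectrometry, three biological replicates, mitosis taken 0.5 h after nocodazole release, G1/S directly after double thymidine block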
protocol: thermal stability score vs G1/S (z-score of summed log2 fold changes over temperatures); higher = more thermally stable than in G1/S
test.settings: cell cycle stage: mitosis
observed.property: thermal stability score
Numbers only.

macromolecule.sequence	value
MATELEYESVLCVKPDVSVYRIPPRASNRGYRASDWKLDQPDWTGRLRITSKGKTAYIKLEDKVSGELFAQAPVEQYPGIAVETVTDSSRYFVIRIQDGTGRSAFIGIGFTDRGDAFDFNVSLQDHFKWVKQESEISKESQEMDARPKLDLGFKEGQTIKLCIGNITNKKGGASKPRTARGGGLSLLPPPPGGKVTIPPPSSSVAISNHVTPPPIPKSNHGGSDADILLDLDSPAPVTTPAPTPVSVSNDLWGDFSTASSSVPNQAPQPSNWVQF [NECAP1]	0.108

Okay, now this sequence:
Identify the reported thermal stability score for the following entry. MKAGATSMWASCCGLLNEVMGTGAVRGQQSAFAGATGPFRFTPNPEFSTYPPAATEGPNIVCKACGLSFSVFRKKHVCCDCKKDFCSVCSVLQENLRRCSTCHLLQETAFQRPQLMRLKVKDLRQYLILRNIPIDTCREKEDLVDLVLCHHGLGSEDDMDTSSLNSSRSQTSSFFTRSFFSNYTAPSATMSSFQGELMDGDQTSRSGVPAQVQSEITSANTEDDDDDDDEDDDDEEENAEDRNPGLSKERVRASLSDLSSLDDVEGMSVRQLKEILARNFVNYSGCCEKWELVEKVNRLYKENEENQKSYGERLQLQDEEDDSLCRICMDAVIDCVLLECGHMVTCTKCGKRMSECPICRQYVVRAVHVFKS [RNF34]
0.834
